Tested on: eastern black nightshade
Assay: Test C pre-/postemergence test
Assay type: in vivo, Solanum ptycanthum
Details: 62 g ai/ha, Preemergence; scale 0 to 100
# Nightshade plant response rating per record follows
Kindly provide the number alone.

1. Cc1cc[n+]([O-])c(S(=O)(=O)Cc2c(C(F)(F)F)nn(C)c2OC(C)C(F)(F)F)c1 (stereo not drawn)    85
2. CC(c1c(C(F)(F)F)nn(CC(F)(F)F)c1Cl)[S+]([O-])c1cccc[n+]1[O-] (stereo not drawn)    100
3. Cn1nc(C(F)(F)F)c(C[S+]([O-])c2cc(C(C)(C)C)cc[n+]2[O-])c1OC(F)F (racemic)    100
4. Cn1nc(C(F)(F)F)c(C(Cl)S(=O)(=O)c2cccc[n+]2[O-])c1OCC(F)(F)F (racemic)    70
5. Cn1nc(C(F)(F)F)c(CS(=O)(=O)c2cccc[n+]2[O-])c1OCC(F)F    70

Q: Any idea what its Nightshade plant response rating is? The compound is CC(Oc1c(C[S+]([O-])c2cccc[n+]2[O-])c(C(F)(F)F)nn1C)C(F)(F)F (stereo not drawn)
Ans: 100

====

Tested on: giant foxtail
Assay: Test C pre-/postemergence test
Assay type: in vivo, Setaria faberii
Details: preemergence, 125 g ai/ha; scale 0 (no effect) to 100 (complete control)
measured-attribute: Foxtail, Giant plant response rating
Kindly provide the number alone.

1) Cc1cc[n+]([O-])c(S(=O)(=O)Cc2c(C(F)(F)F)nn(C)c2OC(F)F)c1    100

Q: Report Foxtail, Giant plant response rating for Cn1nc(C(F)(F)F)c(C(Cl)S(=O)(=O)c2cccc[n+]2[O-])c1Cl (centres unmarked) tested on giant foxtail.
Ans: 80

Q: Report Foxtail, Giant plant response rating for Cn1nc(C(F)(F)F)c(CS(=O)(=O)c2cccc[n+]2[O-])c1Cl tested on giant foxtail.
Ans: 100

Q: Report Foxtail, Giant plant response rating for Cc1cc[n+]([O-])c(S(=O)(=O)C(C)c2c(C(F)(F)F)nn(C)c2Cl)c1 (racemic) tested on giant foxtail.
Ans: 100

Q: Report Foxtail, Giant plant response rating for Cn1nc(C(F)(F)F)c(CS(=O)(=O)c2cccc[n+]2[O-])c1OC(F)F tested on giant foxtail.
Ans: 100

====

# Dayflower plant response rating per record follows
Test system: Virginia dayflower
Assay: Test F preemergence test
Format: in vivo, Commelina virginica
Conditions: 62 g ai/ha, Preemergence; scale 0 to 100
Kindly provide the number alone.

See these solved cases before continuing.
1) CC(c1c(C(F)(F)F)nn(C)c1OC(F)F)S(=O)(=O)c1cccc[n+]1[O-] (stereo not shown)    100
2) Cn1nc(C(F)(F)F)c(CS(=O)(=O)c2cccc[n+]2[O-])c1OC(F)F    90
3) Cc1cc[n+]([O-])c(S(=O)(=O)C(Cl)c2c(C(F)(F)F)nn(C)c2OCC(F)(F)F)c1 (racemic)    100

Q: Any idea what its Dayflower plant response rating is? The molecule is CC(Oc1c(C[S+]([O-])c2cccc[n+]2[O-])c(C(F)(F)F)nn1C)C(F)(F)F (stereo not shown)
Ans: 0

====

Tested on: giant foxtail
Assay: Test C pre-/postemergence test
Type: in vivo, Setaria faberii
Conditions: 62 g ai/ha, Preemergence; scale 0 to 100
# Foxtail, Giant plant response rating per record follows
Kindly provide the number alone.

See these solved cases before continuing.
1. Cc1cc[n+]([O-])c(S(=O)(=O)Cc2c(C(F)(F)C(F)(F)F)nn(C)c2OCC(F)(F)F)c1    85
2. Cn1nc(C(F)(F)F)c(C[S+]([O-])c2ccc(Cl)c[n+]2[O-])c1OCC(F)(F)F (racemic)    100
3. Cn1nc(C(F)(F)F)c(C[S+]([O-])c2ccc(Cl)c[n+]2[O-])c1Cl (racemic)    100
4. CCc1cc[n+]([O-])c(S(=O)(=O)Cc2c(C(F)(F)F)nn(C)c2OCC(F)(F)F)c1    100
5. Cn1nc(C(F)(F)F)c(C(Cl)S(=O)(=O)c2cccc[n+]2[O-])c1OCC(F)(F)F (racemic)    50

Q: Any idea what its Foxtail, Giant plant response rating is? The molecule is Cn1nc(C(F)(F)F)c(C[S+]([O-])c2ccc(Cl)c[n+]2[O-])c1OCC(F)F (stereo not drawn)
Ans: 100

Q: Any idea what its Foxtail, Giant plant response rating is? The molecule is [O-][n+]1cc(Cl)ccc1[S+]([O-])Cc1c(C(F)(F)F)nn(CC(F)(F)F)c1Cl (stereo not drawn)
Ans: 100

Q: Any idea what its Foxtail, Giant plant response rating is? The molecule is Cn1nc(C(F)(F)F)c(CS(=O)(=O)c2cccc[n+]2[O-])c1OCC(F)F
Ans: 98

Q: Any idea what its Foxtail, Giant plant response rating is? The molecule is Cn1nc(C(F)(F)F)c(C[S+]([O-])c2cccc[n+]2[O-])c1OCC(F)F (stereo not drawn)
Ans: 85

====

# Ragweed plant response rating per record follows
Test system: common ragweed
Assay: Test C pre-/postemergence test
Assay type: in vivo, Ambrosia elation
Settings: 62 g ai/ha, Preemergence; scale 0 to 100
Kindly provide the number alone.

See these solved cases before continuing.
1. CC(C)c1cc[n+]([O-])c([S+]([O-])Cc2c(C(F)(F)F)nn(C)c2OC(F)F)c1 (stereo not drawn)    50
2. CC(c1c(C(F)(F)F)nn(C)c1OC(F)F)S(=O)(=O)c1cc(C(C)(C)C)cc[n+]1[O-] (racemic)    20
3. Cn1nc(C(F)(F)F)c(CS(=O)(=O)c2ccc(Cl)c[n+]2[O-])c1Cl    0
4. Cn1nc(C(F)(F)F)c(C[S+]([O-])c2cc(Br)cc[n+]2[O-])c1Cl (racemic)    0

Q: Any idea what its Ragweed plant response rating is? The compound is Cc1cc([S+]([O-])Cc2c(C(F)(F)F)nn(C)c2OCC(F)(F)F)[n+]([O-])cc1Cl (stereo not drawn)
Ans: 80

Q: Any idea what its Ragweed plant response rating is? The compound is CCn1nc(C(F)(F)F)c(C[S+]([O-])c2cc(C)cc[n+]2[O-])c1OCC(F)(F)F (racemic)
Ans: 100

====

# Barnyardgrass plant response rating per record follows
System: barnyardgrass
Test: Test A pre-/postemergence greenhouse test
Format: in vivo, Echinochloa crus-galli
Settings: Postemergence, 500 g ai/ha; 0 to 100 scale, 0 is no effect, 100 is complete control
Kindly provide the number alone.

See these solved cases before continuing.
1) Cn1nc(C(F)(F)F)c(C(Cl)S(=O)(=O)c2cccc[n+]2[O-])c1OCC(F)(F)F (racemic) [Compound 36]    80
2) CCCc1cc[n+]([O-])c(S(=O)(=O)Cc2c(C(F)(F)F)nn(C)c2OCC(F)(F)F)c1 [Compound 115]    70
3) Cn1nc(C(F)(F)F)c(C[S+]([O-])c2cccc[n+]2[O-])c1OC(F)F (centres unmarked) [Compound 3]    90
4) C#CCOc1c(CS(=O)(=O)c2cccc[n+]2[O-])c(C(F)(F)F)nn1C [Compound 103]    90
5) Cn1nc(C(F)(F)F)c(C[S+]([O-])c2ccc(Cl)c[n+]2[O-])c1OCC(F)F (centres unmarked) [Compound 85]    90

Shifting focus to the compound that follows.
Q: Report Barnyardgrass plant response rating for Cn1nc(C(F)(F)F)c(C[S+]([O-])c2cccc[n+]2[O-])c1OCC(F)(F)F (racemic) [Compound 28] tested on barnyardgrass.
Ans: 90

====

# Foxtail, Giant plant response rating per record follows
Test system: giant foxtail
Test: Test A pre-/postemergence greenhouse test
Assay type: in vivo, Setaria faberi
Conditions: Postemergence, 500 g ai/ha; 0 to 100 scale, 0 is no effect, 100 is complete control
Kindly provide the number alone.

See these solved cases before continuing.
1. CCn1nc(C(F)(F)F)c(CS(=O)(=O)c2cc(C)cc[n+]2[O-])c1OCC(F)(F)F    90
2. Cn1nc(C(F)(F)F)c(C(Cl)S(=O)(=O)c2cccc[n+]2[O-])c1OCC(F)(F)F (racemic)    70
3. Cn1nc(OC(F)F)c(CS(=O)(=O)c2cccc[n+]2[O-])c1C(F)(F)F    80
4. Cn1nc(C(F)(F)F)c(C[S+]([O-])c2cccc[n+]2[O-])c1Cl (centres unmarked)    90
5. Cn1nc(C(F)(F)F)c(C[S+]([O-])c2cccc[n+]2[O-])c1OCC(F)(F)C(F)(F)F (centres unmarked)    80

Q: Report Foxtail, Giant plant response rating for Cn1nc(C(F)(F)F)c(C[S+]([O-])c2cc(Br)cc[n+]2[O-])c1Cl (racemic) tested on giant foxtail.
Ans: 80

Q: Report Foxtail, Giant plant response rating for Cn1nc(C(F)(F)F)c(CS(=O)(=O)c2cc(C(C)(C)C)cc[n+]2[O-])c1OCC(F)(F)F tested on giant foxtail.
Ans: 60
